# ASSAY EXPLANATION: Solubility by nephelometry (EURL ECVAM)
# Format: physicochemical
# MEASUREMENT PARAMETERS: ECVAM nephelometry, HepaRG medium; ^2 = solubility limit
OUTCOME MEASURE: HepaRG medium stability (µg/mL)

Some compounds with recorded HepaRG medium stability:
# COMPOUND, HepaRG medium stability, µg/mL
rows = [
    ("CC1(C)S[C@@H]2[C@H](NC(=O)Cc3ccccc3)C(=O)N2[C@H]1C(=O)O [Penicillin G sodium]", 40),
    ("CO[C@H]1/C=C/O[C@@]2(C)Oc3c(C)c(O)c4c(c3C2=O)C2=NC3(CCN(CC(C)C)CC3)NC2=C(NC(=O)/C(C)=C\\C=C\\[C@H](C)[C@H](O)[C@@H](C)[C@@H](O)[C@@H](C)[C@H](OC(C)=O)[C@@H]1C)C4=O", 40),
]

[I] O=C1NC(=O)C(c2ccccc2)(c2ccccc2)N1 [Phenytoin sodium]
[II] O=C1Nc2ccc(Cl)cc2[C@@](C#CC2CC2)(C(F)(F)F)O1
Parameter check: reported HepaRG medium stability is higher for which label, I or II ? // caller expects the label of the chosen entry
I
(I: 40 µg/mL, II: 20 µg/mL)

Data origin: paper PMC6718736
